# experimental_system: HLA-B*07:02;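 further: lysates heated 10 min at 37–73 °C, complexes pulled down with pan-HLA I antibody, peptide signal by DIA-MS relative to 37 °C, Tm where half the complex is unfolded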
# test: thermal melting temperature (Tm) of peptide-HLA complex; higher = more thermostable pHLA complex
# assay_setup: C1R-B*07:02
Over roughly 1,400 sequences, “thermal melting temperature (Tm) of peptide-HLA complex” has its median near 60; the lowest 2% begin near 45. The entries come from a sample that favours the lowest values as a whole.
thermal melting temperature values, listed per item
measurement_type: thermal melting temperature (°C)

sequence_data=MPKVKTIEL measurement_type="thermal melting temperature" unit_abbreviation=°C result=56.4
sequence_data=LPRTPSYSI measurement_type="thermal melting temperature" unit_abbreviation=°C result=62.1
sequence_data=SPRGAGYLF measurement_type="thermal melting temperature" unit_abbreviation=°C result=63
sequence_data=AANPNRFITL measurement_type="thermal melting temperature" unit_abbreviation=°C result=61.1
sequence_data=FPRSVVEFL measurement_type="thermal melting temperature" unit_abbreviation=°C result=62
sequence_data=IPKLPAVSF measurement_type="thermal melting temperature" unit_abbreviation=°C result=63.1
sequence_data=FPNIPGKSL measurement_type="thermal melting temperature" unit_abbreviation=°C result=62
sequence_data=IPDHFRPPL measurement_type="thermal melting temperature" unit_abbreviation=°C result=60.4
sequence_data=RPFFPLTATL measurement_type="thermal melting temperature" unit_abbreviation=°C result=49.6
sequence_data=LPSWGRAEL measurement_type="thermal melting temperature" unit_abbreviation=°C result=62.8
sequence_data=APRTVALTAL measurement_type="thermal melting temperature" unit_abbreviation=°C result=62.9
sequence_data=LPWASTHSL measurement_type="thermal melting temperature" unit_abbreviation=°C result=58.1
sequence_data=RPYGVGLLI measurement_type="thermal melting temperature" unit_abbreviation=°C result=59
sequence_data=LPQLPLAAL measurement_type="thermal melting temperature" unit_abbreviation=°C result=59
sequence_data=KPYAHILSV measurement_type="thermal melting temperature" unit_abbreviation=°C result=55.5
sequence_data=YPFFRGVTI measurement_type="thermal melting temperature" unit_abbreviation=°C result=61.8
sequence_data=LPSPSPRISL measurement_type="thermal melting temperature" unit_abbreviation=°C result=60.6
sequence_data=RPTEGVQAL measurement_type="thermal melting temperature" unit_abbreviation=°C result=54.3
sequence_data=QPHLVNIQF measurement_type="thermal melting temperature" unit_abbreviation=°C result=41.6
sequence_data=HPREPALGP measurement_type="thermal melting temperature" unit_abbreviation=°C result=55.3
sequence_data=YPTISLHAL measurement_type="thermal melting temperature" unit_abbreviation=°C result=59.8
sequence_data=SPAPRTAL measurement_type="thermal melting temperature" unit_abbreviation=°C result=57.4
sequence_data=MPSASRVILL measurement_type="thermal melting temperature" unit_abbreviation=°C result=62.7
sequence_data=APAPPTTTTI measurement_type="thermal melting temperature" unit_abbreviation=°C result=61
sequence_data=APSDLRTIQTF measurement_type="thermal melting temperature" unit_abbreviation=°C result=62.8
sequence_data=RPGWLTVSL measurement_type="thermal melting temperature" unit_abbreviation=°C result=59.2
